Target: T1, mature myostatin (human, murine, rat, chicken, turkey, …, UniProt O08689 268-376 (mouse entry))
T1 construct: also called growth differentiation factor-8; GDF-8
T1 sequence: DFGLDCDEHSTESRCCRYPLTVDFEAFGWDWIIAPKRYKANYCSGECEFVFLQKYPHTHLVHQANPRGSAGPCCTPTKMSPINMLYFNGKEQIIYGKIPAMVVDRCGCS
Assay: ELISA, myostatin coated, periprep Fab titrated, anti-human-kappa-AP

- binder: "C12 Fab with the Asn residue in CDRL3 replaced with tryptophan (Fab, V domains shown, Periprep Fab) VH: QLQLQESGPGLVKPSETLSLTCTVSGFSLRKVGSSVSWIRQPPGKGLEWIGHIYWDDDKRLNPSLRNRVTISVDTSKNQFSLKLSSVTAADTAVYYCARRAITTVIGGGTFDLWGQGTLVTVSS VL: DIQMTQSPSSLSASVGDRVTITCSASSSISYMHWYQQKPGKAPKLLIYDTSKLARGVPSRFSGSGSGTDFTLTISSLQPEDFATYYCQQWYLWPLTFGGGTKVEIKR"
  binding result: "binds"
- binder: "C12 Fab with the Asn residue in CDRL3 replaced with isoleucine (Fab, V domains shown, Periprep Fab) VH: QLQLQESGPGLVKPSETLSLTCTVSGFSLRKVGSSVSWIRQPPGKGLEWIGHIYWDDDKRLNPSLRNRVTISVDTSKNQFSLKLSSVTAADTAVYYCARRAITTVIGGGTFDLWGQGTLVTVSS VL: DIQMTQSPSSLSASVGDRVTITCSASSSISYMHWYQQKPGKAPKLLIYDTSKLARGVPSRFSGSGSGTDFTLTISSLQPEDFATYYCQQWYLIPLTFGGGTKVEIKR"
  binding result: "binds"

These measurements were taken from patent US20100166764A1.
